Consider the following sequences; for each one, report its folding stability dG unfold.
- Test Method Notes: folding stability dG unfold from trypsin proteolysis; higher = more stable
Please answer in the form of a number followed by its unit of measurement.

Please look up its folding stability dG unfold: SAGTIREALDNPKNKRVVIMIMIPPEDFPPGDPERYRERAREMANGIMGWFRERGLDVKIEIEIMYMPWSAG [r5_408_TrROS]
2.38 kcal/mol

Also, SAMVTYDPEKGVFEAEIEVGGETLRVTVVRDPETGEVVAVVERPGSGEPVVLPLPFKSLSDVIRYAEEHSAG [r14_803_TrMRF] please.
2.3 kcal/mol

Here is the next sequence: PNMKMEWIQIPPGDLNDPVKIEAPLPPGTQIMIWVHDNGNGEWRPIFTVNNDEITIKNLPDADHVWVWVIKS [r1_224_TrROS]
1.83 kcal/mol

Now the same for SAGGSAGGSAGGSMPENLVTITTETTVVKSPLANPVNESPVWEVEVISSPVTVVPPSLLSAGGSAGGSAGGS [r4_417_JUSTAS]
1.25 kcal/mol

// query: SAGGSETITIEIEINGAKIKLTFTKNEDGTLTVTAEITLPNGKKLRVTMEFDKKTKEWKITSIEPVSAGGSA [r2_402_TrROS_Hall]
4.37 kcal/mol

Now this one: SAGGSAGGSAGPEITVVKAPDEGYYYLIKLKVTYTLRDPETTAPLAEFEVEYYFLDRGSASAGGSAGGSAGG [r17_124_TrMRF]
3.3 kcal/mol

// same read-out, input: SAGWYIKIKIEYPGDGQKKLEVPIPIPSPEEAKEFADEIADMLAEQNGGNIKIEVEVFRLPPVPPEDQGSAG [r5_87_TrROS]
0.544 kcal/mol

====

- Test Method Notes: folding stability dG unfold from chymotrypsin proteolysis; higher = more stable
Values of folding stability dG unfold greater than or equal to 1 kcal/mol map to MET; values below map to NOT MET.

Is reported folding stability dG unfold greater than or equal to 1 kcal/mol here: SAGGSAGGSAGEVVRVYPTPDGTTVTITPHPTTYTVTTTSPDGVPTTTPVSPAEVAALGLSAGGSAGGSAGG [r17_127_JUSTAS]
NOT MET

# repeat for SALIETAEELARELGVEAELVEIEEGEDVALLRIRLRVDGVPYYFLVRIERPGEDPRIFRVEILEVRPESAG [r14_387_TrMRF]
MET

And what about the sequence SAGGKTIVIELTPEEVEELLKKLLEELKKKAEENPDAKITIVITTPDGRTYTITIDLKTGKITIEELPSAGG [r13_216_TrROS_Hall] ?
MET

Another sequence to look at: SAGGSASTVTRTRTIPGSGLTVEITETPLPDGTYSYTVTFYAPDSALKTTPKTAAPDELPEEELLSSAGGSA [r15_147_JUSTAS]
MET

Lookup SAGGSAGGSAGMYVITIKLPSGEVIKIKTDPKNPEEAIKKLEPQYPPAEFEVKEVPENEISAGGSAGGSAGG [r11_103_JUSTAS]
NOT MET

Another: SAGGSGMIPVTVDFPPDVSEEEIKAYVEELEKKGYKVLKVEITTEKDAKGNTLRTVTVVLAPPSLLSAGGSA [r2_442_JUSTAS]
MET

Moving on to the next sequence: SAGGSAGGSPEVLASFPLKDGSVVIVARRPGEIRVLVVKSSDLENIPELKDIKVFPTFGDDPVSAGGSAGGS [r12_343_TrMRF]
MET

Now consider SAPNIEIDYNKDNGMITIRLPGTGVEYMIPMPDGQLMAIDIEVKPDPDGKRKISIEIYFPDGKEHEFEISAG [r14_675_TrROS] and answer again.
MET

Same again, this time with SAGGEFLEKVIEAAIEAAKAGPDAKLELTIPVPGGPVKVTIEVGEDGKVKVTIYKGDKKILEIELPLSAGGS [r16_611_TrMRF]
MET

Can you handle SAKKLIIKVEVETFDEETGELKTEERTIEADTLEDALAEIERELPPGARVRIEVFDADGKLVETIEIELSAG [r14_234_TrROS_Hall] next?
MET

SAGGGMSPVGTTTSTSPSGVVTTTTTLEAPPPVVTTTTTTTTPVPPPLPPRPPYGPENRARALARAASAGGS [r16_6_JUSTAS] , same question.
NOT MET

Moving on to the next sequence: SAGGSAGGSMKIPEDETYEEKLPDGRKVTYTWEPESGLLKTTTTDPNNDTPTTSTYKVPPSSLLSAGGSAGG [r6_407_JUSTAS]
NOT MET

Proceed to SAGGRGEGTMNDPEGGRVYKSEYDPGDGQAEIEPKPVPPVPPIDAEELAEELEQKNGLPNDDVEDMLGSAGG [r13_824_TrROS]
NOT MET

Try SAGGSAGGSAGPMEVERETIMIPIDPDKGYYIMIDVWRYKNPGGPPFPAPSISIMDLDDLSAGGSAGGSAGG [r11_51_TrROS] next.
MET

How about this sequence: SMKELVKRIAERFPNFKVKIKPEKTGGKKYRTVRIENPDSGRDMEIVFTKNGDIQIEMPNGRRIPLEDILSA [r9_1176_TrROS]
MET

Try this sequence next: SAGGMLTGTLVDPVEGIRYTSFYDPSKPSSSITPKPIPPVPPVSLEELAERLRAATGLSREEVLALLESAGG [r13_824_JUSTAS]
NOT MET

Ok, now SALKISVTVDPDGPTATATLELYNPETGKPTTLTATIHRLPDGSYLVTIHFPSNNKTITFTVPEDGVITLSA [r9_1220_TrMRF]
MET

Here is the next sequence: SAGDKIEIKFNIPMPEGPIRIMVWDNGKREEKDIPPGEEVTIKIDLPPGDDYRIAIYYPDGNMHEFPINSAG [r5_187_TrROS]
MET

Consider next the sequence SAGGSAGGSMTIVDPETGETLEIIEVKKNEDGKESFIFRISSPKPRYFIIDKDGNIRVIEKKDSAGGSAGGS [r12_205_TrROS_Hall] in the same way.
MET

Okay, and SAGGMKIIKELYDKLPPEVKYFSVPFHYPTGKVEPVKPSPTLSMFEPFNPETGEVDRFVVYRDKIEPLSAGG [r13_803_TrMRF] ?
NOT MET

Field entry: SAGGMLKIEVTVPAEYPEQAEEIAAEIRDLLEAGPYVKVLKVEIEPTEDTVRVTVVVEIEFDSPEELISAGG [r13_39_TrMRF]
MET

What would you report for SAGGSAGGSAGMWIDEDTIRRLAALLGYPGKVEVVRLEDGSLLVVVYGDTEPGVLLFPLDSAGGSAGGSAGG [r11_410_TrMRF] ?
MET

Try the sequence SAGGSAGGSAGKLRYRYRFDTVLLEVTYDPSTGEVVEVKVIPLSPLPPLTPEELYRLLEDSAGGSAGGSAGG [r11_320_TrMRF]
MET

Would you mind doing SAGGSAGGSAGGMEIEKNENGELIIKFKSKEEAEKAIEELKKKGYKVELNEDGYLIIKPSAGGSAGGSAGGS [r10_1027_TrROS_Hall] as well?
MET

Subsequent entry: SAGGSAGGGMTLQITSIIEIKKPPDGPVVKFTVAGPGTTRTVTINLPENEIKPTTPIPLSRVLSSAGGSAGG [r6_585_JUSTAS]
NOT MET

Thanks! And SAGSSMSVTIKVTIRSPTRTEEIEITVSPSESLEEAIKKVAEKLPPDYSITITFEGGETVTIPIPKELLSAG [r5_77_JUSTAS] ?
MET

Item: SSPANITTTTTSSPLNLETFDPKTGKKKRINYTLTTETVTFPGGEVVTTTVLKDASTGKVTTLSTTVTPTSA [r9_402_JUSTAS]
MET

====

- Test Method Notes: folding stability dG unfold from chymotrypsin proteolysis; higher = more stable
I'd be grateful if you could share measured folding stability dG unfold for these entries.
A number alone suffices; assume kcal/mol.

// folding stability dG unfold lookup, key: SAGKWKVRTIPLPGFSITIWYDPDEGRIRISITMWMWKPKKDPENGKPKQEHRMMTMEAPIPIPPGAPISAG [r5_195_TrROS]
2.51

Also SAGGSAMYTVTLTLPPSLAIPPDSTITVTFPDGSTETYSVDSGPVTITLTAPADGSTSVGVSLSVPSAGGSA [r15_992_JUSTAS] , if possible.
3.67

And what about the sequence SAGGMLTLTDPETGVPYTGTPVSTTTTTVVLTTPDGTPVETVTVTVTTYEFTAPDGTPVTLTETTGLSAGGS [r8_214_JUSTAS] ?
2.27

Another sequence: SIKFPDGSEIEFEWSEDKEYEVELPNGPIVKIKKVIKEGESWIVEVEFEDGSKVILEVDPNNPEEVQKAIAS [r1_66_TrMRF]
2.19

Entry to check: SAGGKKLLIKVRIEVFNENGELVREEEIEIEVEGMSEEELEELARELLAKLPPENVKIEVEIVELEESAGGS [r16_774_TrROS_Hall]
4.31

Follow-up entry: SAGGSAGGSAGNMWDQALRAAREAKDQGDEEVVIHFPPNMKNWVKEWAEDLGWPIKIQPTSAGGSAGGSAGG [r11_371_TrROS]
0.027

Can you check SAGGSAGGSAGGSGSVRIKVYNPKTGEVLELEVPEELVPAAVEAAKALGFEKVEVSPGKSAGGSAGGSAGGS [r4_102_TrMRF] next?
2.91
